Record form. Attribute: CDC EC50, NIH-3T3-CLDN18.2 target cells. Fill in for each entry.
Target under test: human CLDN18.2 (human)
Test protocol: cell-based or functional assay
Give a bare numeral; the unit pM is implied.

Please look up its CDC EC50, NIH-3T3-CLDN18.2 target cells: humanized antibody hz28G3-1.1 (antibody, human IgG1, kappa, V domains shown) VH: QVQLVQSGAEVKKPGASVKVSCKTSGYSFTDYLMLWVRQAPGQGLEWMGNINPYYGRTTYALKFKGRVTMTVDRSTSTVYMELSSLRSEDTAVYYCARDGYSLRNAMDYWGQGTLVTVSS VL: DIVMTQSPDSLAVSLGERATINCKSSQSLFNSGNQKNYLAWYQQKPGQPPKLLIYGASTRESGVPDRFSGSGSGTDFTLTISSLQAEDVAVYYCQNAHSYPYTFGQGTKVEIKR
290

Please look up its CDC EC50, NIH-3T3-CLDN18.2 target cells: 15F9 (antibody, human IgG1, kappa, V domains shown) VH: QVQLVQSGSELKKPGASVKVSCKASGYTFTNYGINWVRQAPGQGLEWMGWINPNTGETTYAEEFKGRFVFSLDTSVSTAYLQISSLKAEDTAVYFCARLYYGNRFDSWGQGTLVTVSS VL: DIVMTQSPDSLAVSLGERATINCKSSQSLLNSGNQRNYLTWYQQKPGQPPKLLIYWASTRESGVPDRFSGSGSGTDFTLTISSLQAEDVAVYYCQNAYYYPLTFGGGTKVEIKR
250

Fill blank: measured CDC EC50, NIH-3T3-CLDN18.2 target cells of the binder chimeric antibody xi28G3 (antibody, human IgG1, kappa, V domains shown, Mouse variable regions on human IgG1/kappa; defucosylated, expressed in FUT8-knockout CHO-S cells; also called chimeric 28G3) VH: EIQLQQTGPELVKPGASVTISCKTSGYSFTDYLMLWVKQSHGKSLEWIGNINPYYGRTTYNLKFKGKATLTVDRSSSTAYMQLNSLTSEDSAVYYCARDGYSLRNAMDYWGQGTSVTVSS VL: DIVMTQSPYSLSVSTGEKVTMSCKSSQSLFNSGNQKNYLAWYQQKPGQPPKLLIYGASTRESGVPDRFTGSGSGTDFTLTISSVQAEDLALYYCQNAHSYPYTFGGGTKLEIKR is ____.
270
